- protocol: Identification of antibody-drug conjugate (ADC) payloads which are substrates of ATP-binding cassette drug efflux transporters: ABCB1-HeLa-KB-8-5-11 cell line with tariquidar
- testParameters: KB-8-5-11 (P-gp) + tariquidar, viability, CellTiter-Glo, 48 h
- Excerpt: Antibody-drug conjugates (ADCs) feature an antibody recognizing a specific protein joined to a potent toxic payload. Numerous antibody-drug conjugates have received FDA approval; however, clinical resistance arises. Resistance mechanisms include decreased expression or mutation of the antibody target, impaired payload release, or increased expression of ATP-binding cassette (ABC) efflux transporters associated with multidrug resistance. […]
Activity calls are given as the source filed them. The call rests on the fitted dose curve; in most records, active means well fitted inhibition curve with a large enough effect; inactive means flat fitted curve, though single readings scatter. Square brackets hold non-standard residues; d marks the D form. Peptide text beside a SMILES is read from it. Dolaproine = CO[C@@H]([C@@H]1CCCN1)[C@@H](C)C(=O)O; Dil = CC[C@H](C)[C@H](NC)[C@@H](CC(=O)O)OC; NMeV = CN[C@H](C(=O)O)C(C)C
Readings of Potency for the listed compounds

compound	Potency
Cc1nc(Nc2ncc(C(=O)Nc3c(C)cccc3Cl)s2)cc(N2CCN(CCO)CC2)n1	13300 nM (active)
COc1ccc(C2=CN3C(=O)c4cc(OC)c(OCCCOc5cc6c(cc5OC)C(=O)N5C=C(c7ccc(N)cc7)C[C@@H]5C=N6)cc4N=C[C@H]3C2)cc1	59.4 nM (active)
CC[C@H](C)[C@@H]([C@@H](CC(=O)N1CCC[C@H]1[C@H](OC)[C@@H](C)C(=O)N[C@@H](Cc1ccccc1)C(=O)O)OC)N(C)C(=O)[C@@H](NC(=O)[C@@H](NC)C(C)C)C(C)C (H-[NMeV]V[Dil][Dolaproine]F-OH)	37.5 nM (active)
CC[C@H](C)[C@@H]([C@H](N)CC(=O)N1CCC[C@H]1[C@H](OC)[C@@H](C)C(=O)N[C@@H](Cc1ccccc1)c1nccs1)N(C)C(=O)[C@@H](NC(=O)[C@H](C(C)C)N(C)C)C(C)C	0.0472 nM (active)
CC[C@]1(O)CC2CN(CCc3c([nH]c4ccccc34)[C@@](C(=O)OC)(c3cc4c(cc3OC)N(C)[C@H]3[C@@](O)(C(=O)OC)[C@H](OC(C)=O)[C@]5(CC)C=CCN6CC[C@]43[C@@H]65)C2)C1 (some centres not stated)	6.7 nM (active)
COc1cccc2c1C(=O)c1c(O)c3c(c(O)c1C2=O)C[C@@](O)(C(=O)CO)C[C@@H]3O[C@H]1C[C@H](N)[C@H](O)[C@H](C)O1	236 nM (active)
CCc1c2c(nc3ccc(O)cc13)-c1cc3c(c(=O)n1C2)COC(=O)[C@]3(O)CC	298 nM (active)

Ref: PubChem BioAssay AID2202239
